Let's go through some recorded Ki values for UniProt:P34972 together.
Sequence (P34972 whole entry): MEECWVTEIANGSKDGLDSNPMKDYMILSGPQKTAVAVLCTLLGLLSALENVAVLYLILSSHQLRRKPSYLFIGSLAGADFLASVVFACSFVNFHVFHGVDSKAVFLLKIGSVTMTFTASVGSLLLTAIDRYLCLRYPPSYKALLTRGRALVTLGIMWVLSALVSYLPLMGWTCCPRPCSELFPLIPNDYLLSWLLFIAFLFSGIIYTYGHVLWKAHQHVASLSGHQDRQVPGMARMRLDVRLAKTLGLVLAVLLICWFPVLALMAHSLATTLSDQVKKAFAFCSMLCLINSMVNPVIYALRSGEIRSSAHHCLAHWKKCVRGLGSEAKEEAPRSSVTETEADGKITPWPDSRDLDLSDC
Give a bare numeral; the unit µM is implied.

Complete the entry with Ki for C=C1[C@@H]2CC[C@@H](C2)[C@@]1(C)CC/C=C(/C)CO
8.19

Complete the entry with Ki for C/C(=C/CC[C@]1(C)[C@H]2CC3[C@H](C2)[C@]31C)CO
10.5

Complete the entry with Ki for C/C(=C/CC[C@]1(C)[C@H]2C[C@@H]3[C@@H](C2)[C@]31C)CN1CCN(C)CC1
0.99

----------
Molecular target: 5-hydroxytryptamine receptor 2A (Rattus norvegicus, UniProt P14842)
Sequence (P14842 whole entry): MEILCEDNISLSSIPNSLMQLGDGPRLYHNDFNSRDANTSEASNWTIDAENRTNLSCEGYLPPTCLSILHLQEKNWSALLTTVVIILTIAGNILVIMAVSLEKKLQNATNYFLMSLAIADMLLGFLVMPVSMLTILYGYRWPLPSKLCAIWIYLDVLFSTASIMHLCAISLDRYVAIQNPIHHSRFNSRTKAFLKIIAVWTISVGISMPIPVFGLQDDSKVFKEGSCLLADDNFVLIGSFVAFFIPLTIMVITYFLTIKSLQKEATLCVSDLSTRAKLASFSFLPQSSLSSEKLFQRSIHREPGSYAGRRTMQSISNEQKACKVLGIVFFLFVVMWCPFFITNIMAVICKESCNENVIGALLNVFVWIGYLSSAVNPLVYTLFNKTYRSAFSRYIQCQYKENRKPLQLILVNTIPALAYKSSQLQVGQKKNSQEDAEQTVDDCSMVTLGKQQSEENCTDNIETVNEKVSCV
Value Type: IC50 (µM)
Give a bare numeral; the unit µM is implied.

Complete the entry with IC50 for C/C(=C/CC[C@]1(C)[C@H]2CC3[C@H](C2)[C@]31C)CO
180
